Data provenance: patent US10774051B2

Molecular target: human P2X7 receptor (Homo sapiens, UniProt Q99572, R270H/Y155H)
Test: Evaluation of human P2X7 receptor inhibitory activity (Yo-Pro uptake, BzATP stimulation, FLIPR TETRA)
Format: cell-based
Settings: antagonistic activity for the human P2X7 receptor; read-out: IC50

{"compound": "CCOc1cn(Cc2ccc(F)c(Cl)c2)c(Nc2cc(OC)c(OC)cc2CC)nc1=O [Compound I-0909]", "measured target": "human P2X7 receptor (Homo sapiens, UniProt Q99572, R270H/Y155H)", "IC50": "10 to 100 nM"}
{"compound": "COc1cn(Cc2ccc(F)c(Cl)c2)c(Nc2cccc3c2ccc(=O)n3C)nc1=O [Compound I-0881]", "measured target": "human P2X7 receptor (Homo sapiens, UniProt Q99572, R270H/Y155H)", "IC50": "100 to 500 nM"}
{"compound": "Cc1ccc(CO)cc1Nc1nc(=O)c(F)cn1Cc1cc(F)c(F)c(F)c1 [Compound I-1015]", "measured target": "human P2X7 receptor (Homo sapiens, UniProt Q99572, R270H/Y155H)", "IC50": "< 10 nM"}
{"compound": "COc1cn(Cc2ccccc2)c(Nc2cc3c(cc2C)OC(F)(F)O3)nc1=O [Compound I-0711]", "measured target": "human P2X7 receptor (Homo sapiens, UniProt Q99572, R270H/Y155H)", "IC50": "100 to 500 nM"}
